Biological target: SETD2(1434-1711) (Homo sapiens)
Construct: SETD2 (1434-1711) Assay; catalogue N/A
Sequence (Q9BYW2 1434-1711): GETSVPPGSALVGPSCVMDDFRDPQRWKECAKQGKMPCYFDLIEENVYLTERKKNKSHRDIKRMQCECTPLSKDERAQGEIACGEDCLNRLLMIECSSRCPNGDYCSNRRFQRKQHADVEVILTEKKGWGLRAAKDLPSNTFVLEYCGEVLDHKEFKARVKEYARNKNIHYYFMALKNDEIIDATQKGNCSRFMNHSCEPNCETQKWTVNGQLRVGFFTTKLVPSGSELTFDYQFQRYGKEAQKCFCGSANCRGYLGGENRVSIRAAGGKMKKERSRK
Assay: SETD2 (1434-1711) assay
Type: biochemical
Conditions: read-out: SETD2 (1434-1711)
# note: boundary value 0.8 µM maps to FALSE; IC50 below it maps to TRUE

Before answering, review these 5 worked examples.
compound=CCN1CCN([C@@H]2CCC[C@@H](NC(=O)c3cc4c(F)ccc(C)c4[nH]3)C2)CC1=O measured_on="SETD2(1434-1711) (Homo sapiens)" answer_label=FALSE
compound="COC(=O)CC(NC(=O)c1cc2cccc(C)c2[nH]1)c1ccc(C(C)C)cc1 (centres unmarked)" measured_on="SETD2(1434-1711) (Homo sapiens)" answer_label=FALSE
compound="Cc1ccc(F)c2cc(C(=O)NC3CCCC(N4CCN5C(=O)COCC5C4)C3)[nH]c12 (centres unmarked) [compound 1140]" measured_on="SETD2(1434-1711) (Homo sapiens)" answer_label=TRUE
compound=Cc1cccc2cc(C(=O)N[C@@H]3C[C@@H]4CC[C@H]3CN4C(=O)CCCN)[nH]c12 measured_on="SETD2(1434-1711) (Homo sapiens)" answer_label=FALSE
compound="CC(=O)N1CCC(N2CCCCC(NC(=O)c3cc4c(F)ccc(C)c4[nH]3)C2)CC1 (centres unmarked)" measured_on="SETD2(1434-1711) (Homo sapiens)" answer_label=TRUE

Query: Is IC50 of Cc1ccc(F)c2cc(C(=O)Nc3cc(F)cc(N4C[C@@H]5CCN(C)[C@@H]5C4)c3)[nH]c12 strictly below 0.8 µM?
Result: TRUE

Query: Is IC50 of Cc1ccc(F)c2cc(C(=O)NC3CNCCc4ccccc43)[nH]c12 (centres unmarked) strictly below 0.8 µM?
Result: FALSE

Query: Is IC50 of COC(=O)C(NC(=O)c1cc2cccc(C)c2[nH]1)c1ccccc1 (centres unmarked) strictly below 0.8 µM?
Result: FALSE
